- assayed-target: PI3-kinase p110-delta/p85-alpha (Homo sapiens)
- Sequence (P27986 whole entry): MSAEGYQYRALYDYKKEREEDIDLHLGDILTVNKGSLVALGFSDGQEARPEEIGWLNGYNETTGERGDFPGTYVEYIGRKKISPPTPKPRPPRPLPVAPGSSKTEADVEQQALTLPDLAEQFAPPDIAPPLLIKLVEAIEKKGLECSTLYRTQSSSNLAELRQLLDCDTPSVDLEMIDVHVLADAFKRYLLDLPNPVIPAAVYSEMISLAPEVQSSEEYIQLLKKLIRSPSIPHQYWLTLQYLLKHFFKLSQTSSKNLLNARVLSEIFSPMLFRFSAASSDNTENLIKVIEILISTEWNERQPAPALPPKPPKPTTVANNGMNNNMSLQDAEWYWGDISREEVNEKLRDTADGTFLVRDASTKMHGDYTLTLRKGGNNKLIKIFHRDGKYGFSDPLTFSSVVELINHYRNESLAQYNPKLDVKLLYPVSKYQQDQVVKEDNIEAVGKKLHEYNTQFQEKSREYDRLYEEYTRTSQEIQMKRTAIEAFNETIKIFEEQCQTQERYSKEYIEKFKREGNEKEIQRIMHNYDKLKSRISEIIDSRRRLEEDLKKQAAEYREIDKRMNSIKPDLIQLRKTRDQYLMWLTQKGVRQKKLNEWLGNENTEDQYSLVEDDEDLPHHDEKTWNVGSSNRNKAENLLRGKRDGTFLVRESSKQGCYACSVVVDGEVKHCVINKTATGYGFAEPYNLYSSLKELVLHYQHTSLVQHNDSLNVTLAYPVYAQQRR
- Sequence (O00329 whole entry): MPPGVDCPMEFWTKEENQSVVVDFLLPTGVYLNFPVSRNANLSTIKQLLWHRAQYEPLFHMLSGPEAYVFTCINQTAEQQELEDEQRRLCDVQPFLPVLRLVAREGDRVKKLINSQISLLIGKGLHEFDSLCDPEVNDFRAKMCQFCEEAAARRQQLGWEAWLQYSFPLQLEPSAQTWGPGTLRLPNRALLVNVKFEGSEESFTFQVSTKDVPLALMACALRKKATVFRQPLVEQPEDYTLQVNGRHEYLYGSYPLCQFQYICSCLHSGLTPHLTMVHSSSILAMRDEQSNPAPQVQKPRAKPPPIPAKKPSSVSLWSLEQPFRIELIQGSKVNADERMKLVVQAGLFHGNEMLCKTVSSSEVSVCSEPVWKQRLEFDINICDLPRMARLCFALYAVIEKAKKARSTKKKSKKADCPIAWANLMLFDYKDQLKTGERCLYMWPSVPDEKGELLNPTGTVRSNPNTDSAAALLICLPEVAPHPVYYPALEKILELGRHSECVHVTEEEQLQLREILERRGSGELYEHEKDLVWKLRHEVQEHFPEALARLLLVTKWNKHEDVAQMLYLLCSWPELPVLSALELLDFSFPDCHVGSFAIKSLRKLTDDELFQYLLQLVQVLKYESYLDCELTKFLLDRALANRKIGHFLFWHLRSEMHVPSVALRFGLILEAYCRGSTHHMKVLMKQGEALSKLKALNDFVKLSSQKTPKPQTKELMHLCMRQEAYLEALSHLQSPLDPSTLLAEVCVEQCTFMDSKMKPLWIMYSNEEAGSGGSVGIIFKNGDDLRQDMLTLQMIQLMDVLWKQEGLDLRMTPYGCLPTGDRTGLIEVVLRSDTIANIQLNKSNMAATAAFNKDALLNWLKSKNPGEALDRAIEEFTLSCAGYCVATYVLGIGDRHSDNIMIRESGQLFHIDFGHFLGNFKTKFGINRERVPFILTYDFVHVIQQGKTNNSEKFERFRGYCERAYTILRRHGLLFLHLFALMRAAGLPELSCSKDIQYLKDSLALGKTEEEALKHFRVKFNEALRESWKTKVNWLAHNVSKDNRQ
- run-description: Inhibition of human PI3K p110 delta/p85 alpha using phosphatidylinositol-4, 5-bisphosphate as substrate incubated for 30 mins in the presence of Mg/ATP mix by HTRF-based analysis
measure: IC50
# output: number + unit

Recorded IC50 (compound `C[C@H](c1ccccc1)n1nnc2cnc3ccc(-c4ccc(OCCCN(C)C)nc4)cc3c21` ): 1030 nM

* * *

- assayed-target: Phosphatidylinositol 4,5-bisphosphate 3-kinase catalytic subunit gamma isoform (Homo sapiens)
- Sequence (P48736 whole entry, canonical isoform): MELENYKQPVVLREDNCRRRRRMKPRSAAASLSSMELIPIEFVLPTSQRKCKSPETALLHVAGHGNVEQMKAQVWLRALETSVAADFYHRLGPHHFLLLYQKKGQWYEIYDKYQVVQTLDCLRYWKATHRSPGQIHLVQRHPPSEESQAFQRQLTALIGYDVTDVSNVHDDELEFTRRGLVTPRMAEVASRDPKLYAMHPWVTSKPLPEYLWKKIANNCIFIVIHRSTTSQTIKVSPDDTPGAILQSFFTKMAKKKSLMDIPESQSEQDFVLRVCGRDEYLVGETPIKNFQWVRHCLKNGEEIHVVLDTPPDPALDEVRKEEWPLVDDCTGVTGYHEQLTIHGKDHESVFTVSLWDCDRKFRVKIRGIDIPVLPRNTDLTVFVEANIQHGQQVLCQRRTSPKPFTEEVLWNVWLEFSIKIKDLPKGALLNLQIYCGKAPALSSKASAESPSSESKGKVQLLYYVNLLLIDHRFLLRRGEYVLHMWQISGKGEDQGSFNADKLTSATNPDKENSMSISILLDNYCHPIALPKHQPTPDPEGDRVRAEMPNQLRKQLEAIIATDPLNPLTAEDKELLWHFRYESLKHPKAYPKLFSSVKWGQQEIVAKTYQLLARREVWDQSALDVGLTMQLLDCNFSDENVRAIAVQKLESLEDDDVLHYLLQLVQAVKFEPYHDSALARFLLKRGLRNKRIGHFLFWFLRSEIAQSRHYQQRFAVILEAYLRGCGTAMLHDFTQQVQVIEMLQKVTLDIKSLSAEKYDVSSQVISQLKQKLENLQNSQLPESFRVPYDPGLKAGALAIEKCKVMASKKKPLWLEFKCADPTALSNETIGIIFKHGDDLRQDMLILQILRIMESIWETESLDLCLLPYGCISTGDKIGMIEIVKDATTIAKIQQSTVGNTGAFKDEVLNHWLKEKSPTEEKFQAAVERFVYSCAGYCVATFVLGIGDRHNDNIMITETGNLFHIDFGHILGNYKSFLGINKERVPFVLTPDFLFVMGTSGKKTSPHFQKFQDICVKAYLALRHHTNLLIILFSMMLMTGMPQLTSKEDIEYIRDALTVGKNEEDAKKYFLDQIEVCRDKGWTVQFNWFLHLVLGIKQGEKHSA
- run-description: Inhibition of human PI3K p120 gamma using phosphatidylinositol-4, 5-bisphosphate as substrate incubated for 30 mins in the presence of Mg/ATP mix by HTRF-based analysis
measure: IC50

Recorded IC50 (molecule `C[C@H](c1ccccc1)n1nnc2cnc3ccc(-c4ccc(OCCCN(C)C)nc4)cc3c21` ): > 10 µM
